meta.source: PubChem BioAssay

# assay-name: reversal of MRP1-mediated doxorubicin resistance, pilot screen, H69AR cells, doxorubicin co-treatment (AID 601)
# measurement-context: H69AR cells + 2 uM doxorubicin, CellTiter-Glo, 72 h; at 10 µM; hits give high values
measure: differential viability (reversal) (%)
Answers are plain numbers, in %.

In the examples that follow, each entry is paired with its recorded differential viability (reversal).
>  <compound>
N[C@@H](Cc1cc(I)c(Oc2ccc(O)c(I)c2)c(I)c1)C(=O)O

>  <units-text>
%

>  <differential viability (reversal)>
6.87

$$$$
>  <compound>
COc1ccccc1N1CCN(C(=O)C(Cc2ccccc2)NC(=O)C2CCCCC2)CC1 (stereo not given)

>  <units-text>
%

>  <differential viability (reversal)>
3.88

$$$$
>  <compound>
CCOC(=O)C1CCN(S(=O)(=O)c2cc(Cl)c(C)cc2OC)CC1

>  <units-text>
%

>  <differential viability (reversal)>
-9.44

$$$$
>  <compound>
CC(=O)Nc1ccc(S(=O)(=O)Nc2nc3ccccc3nc2N2CCCC2)cc1

>  <units-text>
%

>  <differential viability (reversal)>
-8.08

$$$$

Now look at this one.
Return reported differential viability (reversal). Input compound: CN(C)/C=C1\N=C(c2ccc3c(c2)OCO3)OC1=O
21.1
